Tested on: in vivo angiogenesis, blood vessel count
ASSAY_METHOD_TEXT: reduction of blood vessel formation in vivo – HTS, in vivo study (AID 732);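 also: zebrafish embryos dosed at one day post fertilization; 0% = reference inhibitor and 100% = plate mean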
APPLIED_CONDITIONS: stronger effect = lower value;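 tested at 30 µM in the well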
MEASURED_ENDPOINT: vessel count % control (%)

[
  {
    "COMPOUND": "Clc1cc(I)cc(Cl)c1NC1=NCCN1",
    "OBSERVED_RESULT": 80.6
  },
  {
    "COMPOUND": "OC(CN1CCC(Cc2ccc(F)cc2)CC1)c1ccc(Cl)cc1 (centres undefined)",
    "OBSERVED_RESULT": 61.6
  },
  {
    "COMPOUND": "COCCCC/C(=N\\OCCN)c1ccc(C(F)(F)F)cc1",
    "OBSERVED_RESULT": 145
  },
  {
    "COMPOUND": "O=c1[nH]c2cc(Cl)c(Cl)cc2[nH]c1=O",
    "OBSERVED_RESULT": 109
  },
  {
    "COMPOUND": "CN(C)CCCN1c2ccccc2Sc2ccc(Cl)cc21",
    "OBSERVED_RESULT": 84.3
  },
  {
    "COMPOUND": "NCCCC(=O)O",
    "OBSERVED_RESULT": 109
  },
  {
    "COMPOUND": "Clc1ccc(Cn2c(CN3CCCC3)nc3ccccc32)cc1",
    "OBSERVED_RESULT": 81.8
  },
  {
    "COMPOUND": "COc1ccc(NC(=O)c2ccc(-c3ccc(-c4noc(C)n4)cc3C)cc2)cc1N1CCN(C)CC1",
    "OBSERVED_RESULT": 93
  },
  {
    "COMPOUND": "O=c1cc(-c2ccc(O)cc2)oc2cc(O)cc(O)c12",
    "OBSERVED_RESULT": 87.4
  },
  {
    "COMPOUND": "CCc1cccc(N(C)C(N)=Nc2cccc3ccccc23)c1",
    "OBSERVED_RESULT": 105
  },
  {
    "COMPOUND": "C[C@@]1(C2CCCC2)Cc2cc(OCC(=O)O)c(Cl)c(Cl)c2C1=O",
    "OBSERVED_RESULT": 75.4
  },
  {
    "COMPOUND": "Cc1nc(-c2ccc(-c3ccc(C(=O)N4CCc5cc6c(cc54)C4(CCN(C)CC4)CO6)cc3)c(C)c2)no1",
    "OBSERVED_RESULT": 108
  },
  {
    "COMPOUND": "C[C@]12CC[C@H]3[C@@H](CCC4C[C@H](O)CC[C@@]43C)[C@@H]1CC[C@@H]2O (some centres undefined)",
    "OBSERVED_RESULT": 106
  },
  {
    "COMPOUND": "C=C(C)[C@H]1Cc2c(ccc3c2O[C@@H]2COc4cc(OC)c(OC)cc4[C@@H]2C3=O)O1",
    "OBSERVED_RESULT": 0
  },
  {
    "COMPOUND": "NS(=O)(=O)c1cc2c(cc1Cl)NC=NS2(=O)=O",
    "OBSERVED_RESULT": 135
  },
  {
    "COMPOUND": "CNCCCC12CCC(c3ccccc31)c1ccccc12",
    "OBSERVED_RESULT": 92.5
  },
  {
    "COMPOUND": "Nc1nc2c(ncn2COCCO)c(=O)[nH]1",
    "OBSERVED_RESULT": 110
  },
  {
    "COMPOUND": "NCCC(=O)NCCc1cnc[nH]1",
    "OBSERVED_RESULT": 84.2
  },
  {
    "COMPOUND": "O=C1NCC2(CCN(CCc3ccccc3)CC2)O1",
    "OBSERVED_RESULT": 110
  },
  {
    "COMPOUND": "O=Nc1c(-c2c(O)[nH]c3ccc(S(=O)(=O)O)cc23)[nH]c2ccccc12",
    "OBSERVED_RESULT": 92.9
  },
  {
    "COMPOUND": "Cc1ccc(S(=O)(=O)N[C@@H](CCCCN)C(=O)CCl)cc1",
    "OBSERVED_RESULT": 133
  },
  {
    "COMPOUND": "CC(C(=O)O)c1cccc(C(=O)c2ccccc2)c1 (centres undefined)",
    "OBSERVED_RESULT": 122
  },
  {
    "COMPOUND": "Clc1ccc(C(c2ccc(Cl)cc2)n2cc[n+](CC(OCc3ccc(Cl)cc3Cl)c3ccc(Cl)cc3Cl)c2)cc1 (centres undefined)",
    "OBSERVED_RESULT": 0
  },
  {
    "COMPOUND": "Nc1c(S(=O)(=O)O)cc(Nc2ccc(Nc3nc(Cl)nc(Nc4ccc(S(=O)(=O)O)cc4)n3)c(S(=O)(=O)O)c2)c2c1C(=O)c1ccccc1C2=O",
    "OBSERVED_RESULT": 106
  }
]

* * *

Test system: in vivo angiogenesis, blood vessel count
ASSAY_METHOD_TEXT: reduction of blood vessel formation in vivo – HTS, in vivo study (AID 732);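 also: zebrafish embryos dosed at one day post fertilization; 0% = reference inhibitor and 100% = plate mean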
APPLIED_CONDITIONS: stronger effect = lower value;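 tested at 30 µM in the well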
Entries annotated with measured vessel count % control

[
  {
    "MOLECULE": "COc1ccccc1N1CCN(CCN(C(=O)C2CCCCC2)c2ccccn2)CC1",
    "vessel count % control [%]": 87.8
  },
  {
    "MOLECULE": "Nc1ncnc2c1ncn2[C@@H]1O[C@H](C(=O)NC2CC2)[C@H](O)C1O (stereo not given in full)",
    "vessel count % control [%]": 102
  },
  {
    "MOLECULE": "COc1cc2c(cc1O)CC[C@@H]1[C@@H]2CC[C@]2(C)[C@@H](O)CC[C@@H]12",
    "vessel count % control [%]": 83.1
  },
  {
    "MOLECULE": "Oc1cc(O)c2c(c1)O[C@H](c1ccc(O)c(O)c1)[C@@H](O)C2",
    "vessel count % control [%]": 114
  },
  {
    "MOLECULE": "CC(C)OC(=O)C(C)(C)Oc1ccc(C(=O)c2ccc(Cl)cc2)cc1",
    "vessel count % control [%]": 89.2
  },
  {
    "MOLECULE": "CN(C)CCCCSC(=N)N",
    "vessel count % control [%]": 105
  },
  {
    "MOLECULE": "O=C(C1CCCCC1)N1CC(=O)N2CCc3ccccc3C2C1 (stereo not given)",
    "vessel count % control [%]": 101
  },
  {
    "MOLECULE": "COc1ccc(OC)c(C(O)C(C)N)c1 (stereo not given)",
    "vessel count % control [%]": 94.8
  },
  {
    "MOLECULE": "O=c1onc2cnc3ccccc3n12",
    "vessel count % control [%]": 95.4
  },
  {
    "MOLECULE": "CN1C2CCC1CC(NC(=O)c1nn(C)c3ccccc13)C2 (stereo not given)",
    "vessel count % control [%]": 104
  },
  {
    "MOLECULE": "N#C/C(=C\\c1ccc(O)c(O)c1)C(=O)NCCCNC(=O)/C(C#N)=C/c1ccc(O)c(O)c1",
    "vessel count % control [%]": 118
  },
  {
    "MOLECULE": "O=S(=O)(NCCNC/C=C/c1ccc(Br)cc1)c1cccc2cnccc12",
    "vessel count % control [%]": 90.3
  },
  {
    "MOLECULE": "N=c1ccn2c(n1)OC1[C@@H](O)[C@@H](CO)O[C@H]12 (stereo not given in full)",
    "vessel count % control [%]": 78.4
  },
  {
    "MOLECULE": "CCC(CO)Nc1nc(NCc2ccccc2)c2ncn(C(C)C)c2n1 (stereo not given)",
    "vessel count % control [%]": 82.5
  },
  {
    "MOLECULE": "CC(=O)N[C@H](C(=O)O)C(C)(C)SN=O",
    "vessel count % control [%]": 94.3
  }
]

* * *

Tested on: in vivo angiogenesis, blood vessel count
ASSAY_METHOD_TEXT: reduction of blood vessel formation in vivo – HTS, in vivo study (AID 732);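 also: zebrafish embryos dosed at one day post fertilization; 0% = reference inhibitor and 100% = plate mean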
APPLIED_CONDITIONS: stronger effect = lower value;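 tested at 30 µM in the well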
Calls of active or inactive are those of the source. No rule for the calls is given here.
Entries annotated with measured vessel count % control

[
  {
    "COMPOUND": "CN(C)[C@@H]1C(=O)C(C(N)=O)=C(O)[C@@]2(O)C(=O)C3=C(O)c4c(O)ccc(Cl)c4[C@@H](O)[C@H]3C[C@@H]12",
    "vessel count % control": "87.7% (inactive)"
  },
  {
    "COMPOUND": "CCCCNc1cc(C(=O)O)cc(S(N)(=O)=O)c1Oc1ccccc1",
    "vessel count % control": "59.2% (inactive)"
  },
  {
    "COMPOUND": "CN1[C@@H](CC(=O)c2ccccc2)CCC[C@H]1C[C@H](O)c1ccccc1",
    "vessel count % control": "107% (inactive)"
  },
  {
    "COMPOUND": "Cc1ncc(CNC(=O)N(CCCl)N=O)c(N)n1",
    "vessel count % control": "90.1% (inactive)"
  },
  {
    "COMPOUND": "NCCCS(=O)(=O)O",
    "vessel count % control": "144% (inactive)"
  },
  {
    "COMPOUND": "NC(CCP(=O)(O)O)C(=O)O (configuration not stated)",
    "vessel count % control": "88.9% (inactive)"
  },
  {
    "COMPOUND": "CCCNC(C)C(=O)Nc1ccccc1C (configuration not stated)",
    "vessel count % control": "108% (inactive)"
  },
  {
    "COMPOUND": "Fc1ccc(CN(C2=NCCN2)c2c(Cl)cccc2Cl)cc1",
    "vessel count % control": "92.2% (inactive)"
  },
  {
    "COMPOUND": "Cn1cc(C(=O)OCC2CCN(CCNS(C)(=O)=O)CC2)c2ccccc21",
    "vessel count % control": "106% (inactive)"
  },
  {
    "COMPOUND": "NCCS(=O)(=O)O",
    "vessel count % control": "96.7% (inactive)"
  },
  {
    "COMPOUND": "Nc1ncn([C@@H]2O[C@H](CO)[C@@H](O)[C@H]2O)c(=O)n1",
    "vessel count % control": "65.2% (inactive)"
  },
  {
    "COMPOUND": "O=C1N(c2ccccc2)c2ccccc2C1(Cc1ccncc1)Cc1ccncc1",
    "vessel count % control": "96.6% (inactive)"
  },
  {
    "COMPOUND": "CC(C)C(=O)c1c(C(C)C)nn2ccccc12",
    "vessel count % control": "94.7% (inactive)"
  },
  {
    "COMPOUND": "C[C@]12C=CC(=O)C=C1CC[C@H]1[C@@H]3C[C@@H](O)[C@](O)(C(=O)CO)[C@@]3(C)C[C@H](O)[C@@]12F",
    "vessel count % control": "129% (inactive)"
  },
  {
    "COMPOUND": "O=C(NCCNCC(O)COc1ccc(O)cc1)N1CCOCC1 (configuration not stated)",
    "vessel count % control": "89.9% (inactive)"
  },
  {
    "COMPOUND": "O=C1C(c2c(O)[nH]c3ccccc23)=Nc2ccc(Br)cc21",
    "vessel count % control": "108% (inactive)"
  },
  {
    "COMPOUND": "O=C(O)c1cc(=O)c2c(Cl)cc(Cl)cc2[nH]1",
    "vessel count % control": "113% (inactive)"
  }
]
